Listed below: bioavailability values for each entry.
Assay name: Oral bioavailability in Sprague-Dawley rat at 2 mg/kg by LC-MS/MS and HPLC method
Format: ADME, organism-based
Condition: in vivo
Field: numeric (%). Do not append units.

Some compounds with recorded bioavailability:
Per the records, this compound ( `Cc1c[nH]c2ncnc(-c3ccc(NC(=O)N(CCO)c4ccccc4Cl)cc3)c12` ) has bioavailability equal to 21

Per the records, this compound ( `Cc1c[nH]c2ncnc(-c3ccc(NC(=O)N(CCN)c4ccc(Cl)cc4)cc3)c12` ) has bioavailability equal to 0

Per the records, this compound ( `Cc1c[nH]c2ncnc(-c3ccc(NC(=O)Nc4cccc(C(=O)NC(C)C)c4)c(F)c3)c12` ) has bioavailability equal to 0

Now let's try a different one.
Per the records, this compound ( `Cc1c[nH]c2ncnc(-c3ccc(NC(=O)N(CCO)c4ccccc4)cc3)c12` ) has bioavailability equal to 36
